# TEST_PROTOCOL: Hepatic microsomal stability, MLM
# Assay type: in vitro ADME
# CONDITION_NOTES: In vitro mouse liver microsomal stability
Would you mind labelling by clint? At or over 40 µL/min/mg is Satisfied, under is Not satisfied.

Check the entry CC(C)[C@@H](Nc1ncnc2[nH]c(-c3cnn(CC(=O)N(C)C)c3)cc12)c1ccc2c(c1)S(=O)(=O)CCC2 [ASAP-0013747] : does clint equal or exceed 40 µL/min/mg? Not satisfied

Check the entry CNC(=O)c1c[nH]c2ncnc(N[C@H](c3ccc4c(c3)NC(=O)CO4)C(C)C)c12 (racemic) : does clint equal or exceed 40 µL/min/mg? Satisfied

Check the entry CC(C(=O)O)C(NC(=O)c1ncnc2[nH]ccc12)c1ccc(Br)cc1 (mixture of isomers) : does clint equal or exceed 40 µL/min/mg? Not satisfied

Check the entry C[C@H](C(=O)O)[C@@H](NC(=O)c1ncnc2[nH]ccc12)c1ccc(Br)cc1 : does clint equal or exceed 40 µL/min/mg? Not satisfied

Check the entry CC(C)[C@@H](Nc1ncnc2[nH]c(-c3cnn(C)c3C#N)cc12)c1ccc2c(c1)OCCO2 (racemic) [ASAP-0008275] : does clint equal or exceed 40 µL/min/mg? Satisfied

Check the entry CCNC(=O)c1cc2c(N[C@@H](c3ccc4c(c3)S(=O)(=O)NCC4)C(C)C)ncnc2[nH]1 : does clint equal or exceed 40 µL/min/mg? Satisfied

Check the entry CC(C)[C@H](Nc1ncnc2[nH]c(-c3cnn(C)c3)cc12)c1ccc2c(c1)S(=O)(=O)CCC2 (single isomer, unassigned) : does clint equal or exceed 40 µL/min/mg? Satisfied

Check the entry Cn1ncc(-c2cc3c(N[C@@H](c4ccc5c(n4)OCCO5)C(C)(C)C)ncnc3[nH]2)c1C#N : does clint equal or exceed 40 µL/min/mg? Satisfied

Check the entry CC(C)[C@@H](Nc1ncnc2[nH]c(C(=O)N[C@H]3CCN(C)C3)cc12)c1ccc2c(c1)S(=O)(=O)CCC2 (single isomer, unassigned) : does clint equal or exceed 40 µL/min/mg? Not satisfied

Check the entry CC(C)(C)[C@H](Nc1ncnc2[nH]c(-c3cnn(CC(N)=O)c3)cc12)c1ccc2c(c1)OCCO2 (racemic) [ASAP-0008581] : does clint equal or exceed 40 µL/min/mg? Satisfied

###

# TEST_PROTOCOL: LogD
# CONDITION_NOTES: pH 7.4; In vitro LogD
Entries whose logd is below 3 take fulfilled; entries at or above 3 take not fulfilled.

Quick check: does CC(C)[C@@H](Nc1ncnc2[nH]ccc12)c1ccc2c(c1)S(=O)(=O)CCO2 have logd under 3? fulfilled

Quick check: does CC(C)[C@H](Nc1ncnc2[nH]c(-c3cnn(CC(N)=O)c3)cc12)c1ccc2c(c1)OCCO2 (single isomer, unassigned) [ASAP-0008450] have logd under 3? fulfilled

Quick check: does CC(C)[C@H](Nc1ncnc2[nH]c(-c3cnn(C)c3C#N)cc12)c1ccc2c(c1)NC(=O)CO2 (single isomer, unassigned) [ASAP-0013255] have logd under 3? not fulfilled

Quick check: does CC(C)[C@@H](Nc1ncnc2[nH]c(-c3ccc4cncn4c3)cc12)c1ccc2c(c1)S(=O)(=O)CCC2 have logd under 3? not fulfilled

Quick check: does CNC(=O)c1cccc(-c2cc3c(N[C@H](c4ccc5c(c4)S(=O)(=O)CCC5)C(C)C)ncnc3[nH]2)c1 (single isomer, unassigned) have logd under 3? not fulfilled

Quick check: does CC(C)[C@@H](Nc1ncnc2[nH]c(-c3cnn(CC(=O)N(C)C)c3)cc12)c1ccc2c(c1)S(=O)(=O)CCC2 (racemic) [ASAP-0008668] have logd under 3? fulfilled

Quick check: does CCNC(=O)c1cc2c(N[C@@H](c3ccc4c(c3)S(=O)(=O)NCC4)C(C)C)ncnc2[nH]1 have logd under 3? fulfilled

Quick check: does CCNC(=O)c1cc2c(N[C@@H](c3ccc4c(c3)S(=O)(=O)CCO4)C(C)C)ncnc2[nH]1 (racemic) have logd under 3? fulfilled

Quick check: does COc1ccc([C@H](CC(=O)O)NC(=O)c2ncnc3[nH]ccc23)cc1 (racemic) have logd under 3? fulfilled

Quick check: does CNC(=O)c1cccc(-c2cc3c(N[C@@H](c4ccc5c(c4)S(=O)(=O)CCC5)C(C)C)ncnc3[nH]2)c1 have logd under 3? not fulfilled

Quick check: does CC(C)[C@H](Nc1ncnc2[nH]c(-c3cnn(CC(=O)N(C)C)c3)cc12)c1ccc2c(c1)S(=O)(=O)CCC2 have logd under 3? fulfilled

Quick check: does COc1ccc(C(NC(=O)c2ncnc3[nH]ccc23)C(C)c2nnn[nH]2)cc1 (mixture of isomers) have logd under 3? fulfilled

Quick check: does CC(C)[C@H](Nc1ncnc2[nH]cc(C(N)=O)c12)c1ccc2c(c1)OCCO2 (racemic) have logd under 3? not fulfilled

Quick check: does CC(C)[C@@H](Nc1ncnc2[nH]c(-c3cnn(C)c3C#N)cc12)c1ccc2c(n1)NC(=O)CO2 [ASAP-0008644] have logd under 3? not fulfilled

###

# SUBJECT_OF_TEST: acetylcholinesterase (h) (Homo sapiens, UniProt P22303)
# Construct: purchased Eurofins Cerep (SafetyScreen44), recognised from the panel format
# Sequence (P22303 32-614): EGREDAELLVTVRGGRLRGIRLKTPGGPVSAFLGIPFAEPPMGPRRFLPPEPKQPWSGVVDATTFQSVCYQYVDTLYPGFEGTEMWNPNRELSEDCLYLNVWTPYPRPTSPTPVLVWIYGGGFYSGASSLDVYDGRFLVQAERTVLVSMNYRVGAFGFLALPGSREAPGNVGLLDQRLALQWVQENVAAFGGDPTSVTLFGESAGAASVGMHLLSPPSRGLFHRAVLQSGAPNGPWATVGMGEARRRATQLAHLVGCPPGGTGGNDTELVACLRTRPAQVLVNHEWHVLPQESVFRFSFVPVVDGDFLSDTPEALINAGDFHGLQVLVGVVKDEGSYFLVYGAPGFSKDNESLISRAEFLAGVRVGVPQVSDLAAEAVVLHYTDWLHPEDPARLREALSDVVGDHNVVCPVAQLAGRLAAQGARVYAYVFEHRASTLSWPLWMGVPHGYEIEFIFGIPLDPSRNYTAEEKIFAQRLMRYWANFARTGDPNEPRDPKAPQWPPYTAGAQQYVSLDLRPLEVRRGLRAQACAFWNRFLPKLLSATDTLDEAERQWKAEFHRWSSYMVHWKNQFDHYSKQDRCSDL
# TEST_PROTOCOL: In vitro CEREP profiling, acetylcholinesterase (h)
# Assay type: biochemical
# CONDITION_NOTES: test compound concentration 10 uM; Enzyme and Cell-based assays
Kindly state perc_inhibition: % inhibition of control enzyme activity, acetylcholinesterase (h) for each of the entries shown.
Write the answer as a number in %, unit excluded.

Fill: perc_inhibition: % inhibition of control enzyme activity, acetylcholinesterase (h) (acetylcholinesterase (h) (Homo sapiens, UniProt P22303)) for this molecule CC(C)[C@@H](Nc1ncnc2[nH]c(-c3cnn(C)c3C#N)cc12)c1ccc2c(n1)OCCO2 22

Fill: perc_inhibition: % inhibition of control enzyme activity, acetylcholinesterase (h) (acetylcholinesterase (h) (Homo sapiens, UniProt P22303)) for this molecule CNCc1cc(-c2cc3c(N[C@@H](c4ccc5c(c4)S(=O)(=O)CCC5)C(C)C)ncnc3[nH]2)co1 10

Fill: perc_inhibition: % inhibition of control enzyme activity, acetylcholinesterase (h) (acetylcholinesterase (h) (Homo sapiens, UniProt P22303)) for this molecule CC(C)[C@H](Nc1ncnc2[nH]ccc12)c1ccc2c(c1)S(=O)(=O)CCC2 12

Fill: perc_inhibition: % inhibition of control enzyme activity, acetylcholinesterase (h) (acetylcholinesterase (h) (Homo sapiens, UniProt P22303)) for this molecule Cn1ncc(-c2cc3c(N[C@@H](c4ccc5c(n4)OCCO5)C(C)(C)C)ncnc3[nH]2)c1C#N 14

Fill: perc_inhibition: % inhibition of control enzyme activity, acetylcholinesterase (h) (acetylcholinesterase (h) (Homo sapiens, UniProt P22303)) for this molecule C[C@H](C(=O)O)[C@@H](NC(=O)c1ncnc2[nH]ccc12)c1ccc(Br)cc1 12

Fill: perc_inhibition: % inhibition of control enzyme activity, acetylcholinesterase (h) (acetylcholinesterase (h) (Homo sapiens, UniProt P22303)) for this molecule COc1ccc([C@H](Cc2nnn[nH]2)NC(=O)c2ncnc3[nH]ccc23)cc1 11

Fill: perc_inhibition: % inhibition of control enzyme activity, acetylcholinesterase (h) (acetylcholinesterase (h) (Homo sapiens, UniProt P22303)) for this molecule CC(C)[C@H](Nc1ncnc2[nH]c(-c3cnn(C)c3C#N)cc12)c1ccc2c(n1)OCCO2 15

###

# TEST_PROTOCOL: Permeability Papp (AB) MDR1/MDCKII
# CONDITION_NOTES: In vitro MDR1-MDCKII permeability, A to B, no inhibitor
Would you mind labelling by papp_a_to_b_mean? At or over 4 ×10⁻⁶ cm/s is fulfilled, under is not fulfilled.

Check the entry CC(C)[C@@H](Nc1ncnc2[nH]c(-c3cnn(C)c3C#N)cc12)c1ccc2c(c1)OCCO2 : does papp_a_to_b_mean equal or exceed 4 ×10⁻⁶ cm/s? fulfilled

Check the entry CC(C)[C@@H](Nc1ncnc2[nH]ccc12)c1ccc2c(c1)S(=O)(=O)CCO2 : does papp_a_to_b_mean equal or exceed 4 ×10⁻⁶ cm/s? fulfilled

Check the entry CC(C)[C@H](Nc1ncnc2[nH]c(-c3cnn(CC(N)=O)c3)cc12)c1ccc2c(c1)OCCO2 : does papp_a_to_b_mean equal or exceed 4 ×10⁻⁶ cm/s? not fulfilled

Check the entry CC(C)[C@H](Nc1ncnc2[nH]c(C(=O)N[C@@H]3CCN(C)C3)cc12)c1ccc2c(c1)S(=O)(=O)CCC2 : does papp_a_to_b_mean equal or exceed 4 ×10⁻⁶ cm/s? not fulfilled

Check the entry CC(C)[C@H](Nc1ncnc2[nH]c(-c3cnn(C)c3C#N)cc12)c1ccc2c(c1)OCCO2 : does papp_a_to_b_mean equal or exceed 4 ×10⁻⁶ cm/s? fulfilled

Check the entry CC(C)[C@H](Nc1ncnc2[nH]cc(C(=O)NC3CC3)c12)c1ccc2c(c1)S(=O)(=O)CCC2 (single isomer, unassigned) : does papp_a_to_b_mean equal or exceed 4 ×10⁻⁶ cm/s? not fulfilled

Check the entry CC(C)[C@@H](Nc1ncnc2[nH]c(-c3cncc(S(C)(=O)=O)c3)cc12)c1ccc2c(c1)S(=O)(=O)CCC2 : does papp_a_to_b_mean equal or exceed 4 ×10⁻⁶ cm/s? not fulfilled

Origin of values: paper doi:10.1101/2024.08.19.608619
